# EXPERIMENT SUMMARY: Human HepG2 cell viability assay in 384 well format
# Format: toxicity, cell-based
# Parameters: dose 125 nL, time 70.5 hour; concentration not given beside the values
# SETUP CONDITIONS: HepG2 cells, read-out: Inhibition

MOLECULE | cytotoxicity at 70.5 h [%]
N#Cc1cccc(N2CCC(c3nccn3Cc3cscn3)CC2)n1 | -2.31
Cc1[nH]c(=O)sc1S(=O)(=O)N1CCCC1C(=O)NC1CC1 (centres undefined) | -6.92
CC(C)c1nccn1CCn1cnc2ccsc2c1=O | -8.28
O=C(c1ccccc1OC1CCCC1)N1CCCC(n2cncn2)C1 (centres undefined) | -9.06
COc1ccc2c(c1)CN(Cc1ccco1)C(=O)CCN2CC(C)(C)O | 1.21
CC(NC(=O)NCc1cccc(N2CCCC2=O)c1)c1ccccc1 (centres undefined) | -12.2
COc1cccc(CC(=O)NCC(Cc2ccc(F)cc2)C(N)=O)c1 (centres undefined) | -4.64
O=C(C1CCCO1)N1CCC(Cn2cc(C3CCCC3)nn2)CC1 (centres undefined) | 2.36
CCC(NC(=O)CCCN1CCCCC1)c1cn2cccnc2n1 (centres undefined) | -0.954
CC(C)(C)C(CCO)NC(=O)Nc1ccncc1 (centres undefined) | 23.3
Cn1cccc1C(=O)N1CCC2(CC1)CCN2S(C)(=O)=O | -4.8
CCc1ccc(C(C)NCc2nccn2Cc2ccccc2)o1 (centres undefined) | -9.96
CC(CCNC(=O)NCCNc1cnccn1)c1ccccc1 (centres undefined) | -13.6
Cc1ccnc(NC(=O)CCc2cnn(C)c2C)c1 | -4.47
c1sc(C2CCCC2)nc1CN1CCn2c(nnc2C2CC2)C1 | 4.56
Cc1nc2ccc(C(=O)N3CCn4c(C)nnc4C3)cc2nc1C | -5.63
CN1CCC(c2cncc(C(=O)NCc3ccc(F)cc3)n2)CC1 | -5.99
CC(CO)N1CCN(C(=O)OC(C)(C)C)CC1 (centres undefined) | -6.8
CC(C)Oc1ccc(C(=O)N2CCC(Nc3cccnn3)CC2)cn1 | -5.88
Cc1nn(-c2ccccc2)c(C)c1-c1ccnc(N2CCCOCC2)n1 | -3.17
c1cnc(N2CCO[C@H]3CN(Cc4c[nH]cn4)C[C@H]32)cn1 | -5.79
Cc1cccc2nc(C(=O)N3CCC4(CCC(=O)N(C)C4)CC3)c(F)n12 | -11.3
O=c1cc(C2CCNCC2)nc(CCc2ccccn2)[nH]1 | -2.52
CC(=O)N1[C@H](CN(C)C)C[C@@H]2CN(C(=O)c3cccc(F)c3)CC[C@@H]21 | -14.7
